target: T1, human MSLN-R3-his protein (human, UniProt Q13421 487-598); test: ELISA on coated antigen, antibody 2 nM
T1 construct: it is put last here; also called human MSLN-R3 protein; hMSLN-R3-his; not shown: His tag
T1 sequence (Q13421 495-606): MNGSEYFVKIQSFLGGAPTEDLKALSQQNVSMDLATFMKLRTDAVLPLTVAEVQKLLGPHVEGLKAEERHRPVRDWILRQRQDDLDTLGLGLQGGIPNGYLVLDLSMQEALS
Measure: OD450 (OD)
Return type: number; implicit unit OD.

>>> measured_number("S009-F7.12.13 (antibody, human IgG1, kappa, V domains shown, Human-murine chimeric antibody, human IgG1 heavy and kappa light constant regions) VH: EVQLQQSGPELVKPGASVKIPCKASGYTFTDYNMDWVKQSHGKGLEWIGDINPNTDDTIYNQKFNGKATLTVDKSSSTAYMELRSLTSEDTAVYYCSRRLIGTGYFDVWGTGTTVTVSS VL: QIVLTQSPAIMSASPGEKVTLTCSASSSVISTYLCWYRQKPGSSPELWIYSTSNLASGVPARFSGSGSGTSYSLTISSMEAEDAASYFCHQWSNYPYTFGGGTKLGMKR")
2.48
>>> measured_number("S009-F7.21.16 (antibody, human IgG1, kappa, V domains shown, Human-murine chimeric antibody, human IgG1 heavy and kappa light constant regions) VH: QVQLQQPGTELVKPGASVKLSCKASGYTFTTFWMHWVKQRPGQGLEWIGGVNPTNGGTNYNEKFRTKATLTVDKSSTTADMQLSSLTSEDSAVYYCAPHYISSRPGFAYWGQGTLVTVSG VL: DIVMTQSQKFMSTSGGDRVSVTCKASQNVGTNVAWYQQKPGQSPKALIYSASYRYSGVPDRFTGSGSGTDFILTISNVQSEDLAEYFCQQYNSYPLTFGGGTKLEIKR")
2.75
>>> measured_number("S009-F7.26.15 (antibody, human IgG1, kappa, V domains shown, Human-murine chimeric antibody, human IgG1 heavy and kappa light constant regions) VH: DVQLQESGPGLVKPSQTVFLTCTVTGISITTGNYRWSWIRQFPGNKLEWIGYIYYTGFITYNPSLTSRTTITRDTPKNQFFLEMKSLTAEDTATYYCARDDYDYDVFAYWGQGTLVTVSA VL: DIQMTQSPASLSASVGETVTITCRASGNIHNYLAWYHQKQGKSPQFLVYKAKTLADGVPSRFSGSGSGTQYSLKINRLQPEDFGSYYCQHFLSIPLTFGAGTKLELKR")
2.79
>>> measured_number("S009-F7.11.11 (antibody, human IgG1, kappa, V domains shown, Human-murine chimeric antibody, human IgG1 heavy and kappa light constant regions) VH: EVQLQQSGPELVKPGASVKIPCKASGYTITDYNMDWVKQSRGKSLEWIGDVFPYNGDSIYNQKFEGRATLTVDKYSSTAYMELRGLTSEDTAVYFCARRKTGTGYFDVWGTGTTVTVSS VL: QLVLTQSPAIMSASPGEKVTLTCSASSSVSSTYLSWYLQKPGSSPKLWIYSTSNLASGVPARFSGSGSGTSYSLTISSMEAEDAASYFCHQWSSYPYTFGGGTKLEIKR")
2.41
>>> measured_number("Tab106 (YP218, hIgG1) (antibody, V domains shown, Control antibody; YP218 VH and VL recombined into human IgG1 CH and CL expression vectors; also called YP218 human IgG1 antibody) VH: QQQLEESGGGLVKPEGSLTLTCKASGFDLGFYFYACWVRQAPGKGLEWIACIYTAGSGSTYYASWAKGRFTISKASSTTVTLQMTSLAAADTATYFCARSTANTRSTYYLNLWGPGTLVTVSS VL: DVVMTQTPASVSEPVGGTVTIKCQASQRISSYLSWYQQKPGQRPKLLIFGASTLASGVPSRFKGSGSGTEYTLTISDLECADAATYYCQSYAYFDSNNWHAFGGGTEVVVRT")
2.33

Which OD450 reading was recorded for the binder S009-F7.53.2 (antibody, human IgG1, kappa, V domains shown, Human-murine chimeric antibody, human IgG1 heavy and kappa light constant regions) VH: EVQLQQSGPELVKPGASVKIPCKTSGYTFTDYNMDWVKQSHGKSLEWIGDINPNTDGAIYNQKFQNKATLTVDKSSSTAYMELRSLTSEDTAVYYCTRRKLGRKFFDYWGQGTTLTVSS VL: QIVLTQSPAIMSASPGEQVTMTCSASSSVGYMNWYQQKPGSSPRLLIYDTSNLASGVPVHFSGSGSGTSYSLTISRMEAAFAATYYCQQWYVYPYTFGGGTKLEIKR ?
1.71

State the recorded OD450 for this entry: S009-F7.30.5 (antibody, human IgG1, kappa, V domains shown, Human-murine chimeric antibody, human IgG1 heavy and kappa light constant regions) VH: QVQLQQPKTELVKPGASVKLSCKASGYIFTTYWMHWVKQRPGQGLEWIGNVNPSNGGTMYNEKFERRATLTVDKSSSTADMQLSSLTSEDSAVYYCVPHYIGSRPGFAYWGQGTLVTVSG VL: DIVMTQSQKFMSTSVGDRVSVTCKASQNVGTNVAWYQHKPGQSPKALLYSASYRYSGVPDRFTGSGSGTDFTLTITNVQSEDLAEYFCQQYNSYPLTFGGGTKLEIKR
2.75

Could you tell me which OD450 is on file for S009-F7.18.10 (antibody, human IgG1, kappa, V domains shown, Human-murine chimeric antibody, human IgG1 heavy and kappa light constant regions) VH: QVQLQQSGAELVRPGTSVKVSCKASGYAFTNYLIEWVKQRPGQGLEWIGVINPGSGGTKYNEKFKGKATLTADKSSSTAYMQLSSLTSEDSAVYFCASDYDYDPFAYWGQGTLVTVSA VL: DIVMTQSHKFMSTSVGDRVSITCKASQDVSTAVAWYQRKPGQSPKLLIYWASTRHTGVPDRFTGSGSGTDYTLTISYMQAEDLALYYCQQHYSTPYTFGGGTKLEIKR ?
0.07

Look up OD450 for this binder: S009-F7.6.17 (antibody, human IgG1, kappa, V domains shown, Human-murine chimeric antibody, human IgG1 heavy and kappa light constant regions) VH: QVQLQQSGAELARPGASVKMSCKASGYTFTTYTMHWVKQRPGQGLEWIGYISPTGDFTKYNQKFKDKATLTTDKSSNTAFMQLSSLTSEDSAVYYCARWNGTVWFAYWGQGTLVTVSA VL: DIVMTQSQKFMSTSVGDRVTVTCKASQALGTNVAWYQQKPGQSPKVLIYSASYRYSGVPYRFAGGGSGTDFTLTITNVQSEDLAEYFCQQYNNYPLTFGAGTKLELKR
2.86

Form field: reported OD450 of S009-F7.23.19 (antibody, human IgG1, kappa, V domains shown, Human-murine chimeric antibody, human IgG1 heavy and kappa light constant regions) VH: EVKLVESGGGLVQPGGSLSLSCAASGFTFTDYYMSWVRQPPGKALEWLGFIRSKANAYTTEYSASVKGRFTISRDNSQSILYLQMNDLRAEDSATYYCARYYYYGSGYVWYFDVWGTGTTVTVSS VL: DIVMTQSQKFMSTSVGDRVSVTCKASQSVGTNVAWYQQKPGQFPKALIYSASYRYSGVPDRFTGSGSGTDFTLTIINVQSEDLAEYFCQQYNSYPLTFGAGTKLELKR
2.52
